Target: human serum albumin (HSA) (Homo sapiens)
Construct: gene ALB; full HSA; recombinant domain III (DIII) also measured
Assay: BLI; also HRMS, SDS-PAGE and proteomics of the covalent adduct
Assay type: binding
metricName: Kd

Input line: Suppose we examine the compound O=C(O)CCCCCn1/c(=C/C=C2\CCCC(/C=C/C3=[N+](CCCCCC(=O)O)c4cccc5cccc3c45)=C2Cl)c2cccc3cccc1c32 ; what Kd value has been reported?
Output line: ~2.13 nM

----------
Biological target: human serum albumin (HSA) (Homo sapiens, UniProt P02768)
Construct: gene ALB; full HSA; recombinant domain III (DIII) also measured
Sequence (P02768 25-609): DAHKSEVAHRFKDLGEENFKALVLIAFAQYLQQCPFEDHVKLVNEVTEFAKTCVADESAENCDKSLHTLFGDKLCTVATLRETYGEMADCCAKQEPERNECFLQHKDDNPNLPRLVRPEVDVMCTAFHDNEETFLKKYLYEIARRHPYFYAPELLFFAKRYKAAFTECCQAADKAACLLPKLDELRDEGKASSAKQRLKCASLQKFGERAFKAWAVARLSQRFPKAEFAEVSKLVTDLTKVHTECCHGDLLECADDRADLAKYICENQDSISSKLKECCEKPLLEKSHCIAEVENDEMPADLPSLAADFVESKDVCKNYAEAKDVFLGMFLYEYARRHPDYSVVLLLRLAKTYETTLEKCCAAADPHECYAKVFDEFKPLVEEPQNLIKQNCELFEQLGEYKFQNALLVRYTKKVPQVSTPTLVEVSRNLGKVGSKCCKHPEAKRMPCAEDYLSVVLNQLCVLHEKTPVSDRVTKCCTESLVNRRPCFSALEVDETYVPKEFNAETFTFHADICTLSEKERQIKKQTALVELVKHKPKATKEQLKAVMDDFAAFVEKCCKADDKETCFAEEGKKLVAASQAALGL
Assay: BLI; also HRMS ([…] covalent binding) and SDS-PAGE
pKd: −log10 of the molar value.
metricName: pKd

Input line: For O=S(=O)(O)CCCCn1/c(=C/C=C2\CCCC(/C=C/C3=[N+](CCCCS(=O)(=O)O)c4cccc5cccc3c45)=C2Cl)c2cccc3cccc1c32 , what is its reported pKd?
Output line: ~7.08
